- Tested On: human glucagon receptor (GCGR), expressed on CHO-K1 cells (human, UniProt P47871 26-477)
- Sequence (P47871 26-477): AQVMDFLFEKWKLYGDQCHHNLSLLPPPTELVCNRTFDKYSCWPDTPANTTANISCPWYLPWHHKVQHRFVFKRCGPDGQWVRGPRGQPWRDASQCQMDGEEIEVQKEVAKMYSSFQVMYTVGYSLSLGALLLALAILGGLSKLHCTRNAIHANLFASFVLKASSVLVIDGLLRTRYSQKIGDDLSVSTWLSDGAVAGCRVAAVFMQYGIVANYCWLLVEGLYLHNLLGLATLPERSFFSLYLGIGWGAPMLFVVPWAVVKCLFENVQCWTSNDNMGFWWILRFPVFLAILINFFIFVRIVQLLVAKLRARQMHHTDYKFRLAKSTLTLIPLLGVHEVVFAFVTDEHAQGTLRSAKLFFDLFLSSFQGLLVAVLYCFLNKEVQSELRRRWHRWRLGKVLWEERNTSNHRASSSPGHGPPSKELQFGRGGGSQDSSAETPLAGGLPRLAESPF
- Test Name: cell-based or functional assay
Numbered stars: 1 amine (or outer) side, 2 acyl side, 3 side chain; on linkers, the order of the positions; unused ones are H or OH. Square brackets hold non-standard residues; d marks the D form. Primed or numbered codes have the meaning given here. Side chains are listed from the residue outwards. Ends that are not written are not given here. * marks the point of attachment. C18 = C18 fatty acid (C16-C22 fatty acids conjugated via γGlu/8-amino-3,6-dioxaoctanoic acid spacers); C18″ = C18 fatty acid moiety (of 2OEG-γGlu-C18, K*); γGlu = O=C(O)[C@H](CCC(=O)[*:2])N[*:1]; AEEA = NCCOCCOCC(=O)O; Aib = CC(C)(N)C(=O)O; MAL = maleimide

Binder | Relative % to native ligand
Y[Aib]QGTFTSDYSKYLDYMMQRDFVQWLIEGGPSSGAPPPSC-NH2 [Peptide No. 5-2] | 91%
H[Aib]QGTFTSDYSK([AEEA-AEEA-γGlu-C18″])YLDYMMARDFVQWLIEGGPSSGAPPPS-NH2 [Peptide No. 5D] | 72%
H[Aib]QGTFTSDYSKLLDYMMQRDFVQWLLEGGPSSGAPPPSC([MAL-AEEA-AEEA-γGlu-C18])-NH2 [Peptide No. 5-5A] | 1%
